Where do these numbers come from? They come from PubChem BioAssay.

Study system: Potassium voltage-gated channel subfamily KQT member 1 (Homo sapiens)
Assay text: KCNQ1 potassium channel potentiators, confirmation, FluxOR thallium flux, CHO cells, duplicates (AID 493007);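 for potentiation: 0% = buffer-only wells and 100% = R-L3 activator control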
Condition details: KCNQ1 cell line, FluxOR thallium flux fluorescence, at 10 µM; stronger effect = higher value, % of reference activator effect, buffer zero
The source made the active and inactive calls.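 Rule for the calls: active = potentiation averaged over duplicate wells exceeding buffer-only control mean by more than 3 SD; inactive = the rest.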
Observable: potentiation

>>> recorded_measurement("Oc1c(Cl)cc(Cl)cc1/C=N/NC(=S)NC1CC2C=CC1C2 (stereo unspecified)")
"inactive"
>>> recorded_measurement("Clc1ccc(C2=Nn3c(nnc3-c3n[nH]c4c3CCC4)SC2)cc1Cl")
"inactive"
>>> recorded_measurement("Cc1nc(NCCc2cnc[nH]2)c2oc3ccccc3c2n1")
"inactive"
>>> recorded_measurement("CCCOC(=O)C1=C(C)NC2=C(C(=O)CCC2)C1c1ccc(N(C)C)cc1 (stereo unspecified)")
"inactive"
>>> recorded_measurement("CN(CCCNC(=O)CSc1cc(=O)n(C)c2ccc(Cl)cc12)Cc1ccccc1")
"inactive"
>>> recorded_measurement("O=C(c1ccc(-c2ccccc2)cc1)N1CCCC1")
"217% (active)"

* * *

Study system: Potassium voltage-gated channel subfamily KQT member 2 (Rattus norvegicus)
Assay text: rat KCNQ2 channel potentiation, selectivity assay for KCNQ1 potentiator project, KCNQ2-CHO-K1 cells (AID 493009);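 note: assay conditions were tuned for KCNQ1 rather than KCNQ2 modulators; signal is max minus min fluorescence divided by baseline after thallium stimulus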
Condition details: FluxOR thallium flux fluorescence, at 10 µM, scaled: buffer 0, activator control 100
Calls of active or inactive are those of the source.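 Rule for the calls: active = mean duplicate potentiation above the buffer control mean plus 5 SD of buffer wells; inactive = the rest.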
Outcome codes: T (active), F (inactive)

>>> class_name("CC/C(=N\\NC(=S)Nc1cccc(C)c1)c1ccccc1")
"T"
>>> class_name("OC1(c2ccc(Br)cc2)CCNCC1")
"F"
>>> class_name("CC1Oc2ccccc2N(CC(=O)N2CCCCCC2)C1=O (stereo unspecified)")
"F"
>>> class_name("COc1cc(S(=O)(=O)Nc2cccnc2)ccc1Cl")
"T"
>>> class_name("O=c1c2cc(F)ccc2[nH]c(=S)n1Cc1ccc(F)cc1")
"F"
>>> class_name("Cc1sc(N/N=C/c2ccco2)nc1-c1ccccc1")
"F"
>>> class_name("CCc1nc2sc3c(=O)[nH]cnc3c2c2c1CSC(C)(C)C2")
"F"
>>> class_name("CCN(CC)CC(=O)Nc1ccc2c(c1)Nc1ccccc1CC2")
"T"
>>> class_name("COCCCNC(=O)CC(NS(=O)(=O)c1ccc(F)cc1)c1ccc(OC)cc1 (stereo unspecified)")
"F"
>>> class_name("O=C(/C=C/c1ccco1)NC(=S)Nc1ccccc1O")
"F"
>>> class_name("Cc1nnc(SCC(=O)N(Cc2ccccc2)C(C)C)n1-c1ccccc1")
"F"
>>> class_name("Cc1onc(-c2ccccc2)c1C(=O)NC(=S)Nc1sc2c(c1C#N)CCCC2")
"F"
>>> class_name("CCCOc1ccc(C(=O)NNC(=S)NC(=O)c2ccco2)cc1")
"T"
>>> class_name("COC(=O)CSc1nc(N)c2c3c(sc2n1)C(c1ccccc1)SC(c1ccccc1)C3 (stereo unspecified)")
"F"
>>> class_name("CCN(CC)S(=O)(=O)c1cc(OC)ccc1N=Nc1ccc(O)c2ncccc12")
"T"
>>> class_name("S=C1NC2(CCCCC2)Cc2ccccc21")
"F"
>>> class_name("Fc1ccc(/C=N/n2c(-c3cccs3)n[nH]c2=S)cc1")
"F"
>>> class_name("O=C(NC(=S)Nc1ccccc1N1CCOCC1)c1sc2ccccc2c1Cl")
"F"
>>> class_name("CCOC(=O)Cc1csc(NC(=O)CSc2nnnn2-c2ccc(C)cc2C)n1")
"F"
>>> class_name("O=c1[nH]cc(-c2ccccc2)c(=O)[nH]1")
"F"
>>> class_name("Cc1cc(C)cc(OCC(O)Cn2nc(C)cc2C)c1 (stereo unspecified)")
"F"
>>> class_name("CCc1ccc(NC(=O)C(=O)NNC(=O)c2cccc(OC)c2)cc1")
"T"
>>> class_name("CCCc1nc(SCC(=O)Nc2cc(Cl)ccc2OC)c2c(=O)n(C)c(=O)n(C)c2n1")
"F"
>>> class_name("CC(=O)NC(C1C(=O)CC(C)(C)CC1=O)(C(F)(F)F)C(F)(F)F")
"F"
>>> class_name("CCc1ccccc1NC(=O)C1CCN(C(=O)N2CCOc3ccccc32)CC1")
"F"
>>> class_name("CCOc1ccc(NC(=O)CN(C)C(=O)C2CCN(c3ncnc4sc(C)c(C)c34)CC2)cc1OCC")
"F"
>>> class_name("COc1cc(C(=O)CCN2CCC(c3ccccc3)C2)cc(OC)c1OC (stereo unspecified)")
"F"
>>> class_name("CSc1ccc(NC(=O)CC(C)=O)cc1")
"F"
>>> class_name("CC(=O)N[C@H]1[C@H](OC2CCCCC2)O[C@H](COC(C)=O)[C@@H](OC(C)=O)[C@@H]1OC(C)=O")
"F"
>>> class_name("Cc1cccc(C(=O)NC(=S)N(C)C2CCCCC2)c1")
"T"
>>> class_name("Oc1c(N=NC(=S)Nc2ccccc2F)c2ccccc2n1Cc1ccccc1Cl")
"T"
>>> class_name("CNc1nc(N)c([N+](=O)[O-])c(Nc2cccc(F)c2)n1")
"F"
>>> class_name("COc1cccc(C(=O)Nc2nc(-c3ccccc3)c(-c3ccccc3)o2)c1")
"T"
>>> class_name("CC(=O)Oc1c(-c2ccco2)oc2ccccc2c1=O")
"T"
>>> class_name("O=C(NC1CCCC1)C(=O)N(Cc1cccnc1)C(C(=O)NC1CCCC1)c1ccco1 (stereo unspecified)")
"F"
>>> class_name("COc1ccc(C(=O)N2CCC(N3CCN(c4ccccc4)CC3)CC2)cc1")
"F"
>>> class_name("FC(F)(F)c1cc(N2CCNCC2)c2ccccc2n1")
"F"
>>> class_name("O=C(NNC(=O)c1ccc(Cl)c(Cl)c1)c1ccncc1")
"F"
>>> class_name("COc1cc(Br)cc(/C=N/c2ncn[nH]2)c1O")
"F"
>>> class_name("Cc1ccc(OCCCC(=O)NCc2ccco2)c(C)c1")
"F"
>>> class_name("Cc1ccc(C)c(/C=C/C(=O)c2ccccc(=O)c2O)c1")
"T"
>>> class_name("Cn1c(=O)c2c(SC3CCCC3)nc(C3CC3)nc2n(C)c1=O")
"F"
>>> class_name("N/C(=N\\OC(=O)c1cccc2ccccc12)c1ccc(Br)cc1")
"F"
>>> class_name("CCNC(=S)Nc1scc(-c2ccccc2)c1C(=O)OCC")
"T"
>>> class_name("COC(=O)c1ccc(NC(=S)NC(=O)c2c(Cl)cnn2C)cc1")
"F"
>>> class_name("CCN(CC)S(=O)(=O)c1cccc(C(=O)N/N=C/c2cccc(O)c2O)c1")
"F"
